Origin of the recorded values: ChEMBL document CHEMBL1201862

Tested on: 786-0
Test: NCI tumour cell line growth inhibition, 48 h
Activity calls are given as the source filed them. No stated cut-off is given here; in the data, active = GI50 up to about 1.1 µM and inactive = higher.
The reply should name one outcome from true = active, false = inactive

Previously resolved entries follow.
MOLECULE: O=C1NCN(c2ccccc2)C12CCN(CCCN1CCN(CCOC(c3ccccc3)c3ccccc3)CC1)CC2
ANSWER_LABEL: true
//
MOLECULE: Cc1cn(C2C=CC(=O)C(C)O2)c(=O)[nH]c1=O (configuration not stated)
ANSWER_LABEL: false
//
MOLECULE: O=[N+]([O-])c1ccc2occ3c2c1CCC3
ANSWER_LABEL: false

# next molecule below
Q: Lab log entry: "Cn1c2ccc(F)cc2c2ccc3c(c21)C(=O)C=CC3=O" — outcome as called in the assay?
Ans: false

---

Consider the following molecules and their measured GI50 readings.
Test system: M19-MEL
Assay: NCI tumour cell line growth inhibition, 48 h
Calls of active or inactive are those of the source. Rule as the data show it: active = GI50 up to about 1.1 µM and inactive = higher.

MOLECULE: COc1ccc(C(=O)C(C(=O)CCC(=O)Nc2cccc(Cl)c2)c2ccc(OC)cc2)cc1 (stereo unspecified)
GI50: > 100 µM (inactive)

The molecule "CCO[C@@H]1OC(=O)[C@](C)(C(C)=O)[C@@H]1C" showed GI50 equal to 58.1 µM (inactive)

GI50 reported for this molecule "Cc1ccc(-c2cc(-c3ccccc3)c(C#N)c(=O)[nH]2)cc1" : > 100 µM (inactive)

GI50 reported for this molecule "CCCCC(/C=N/NC(=N)N)CC.Cc1cc(O)c(C(C)C)cc1S(=O)(=O)O" : 48.3 µM (inactive)

---

The entries below are paired with their reported GI50.
Test system: T47D
Test: NCI tumour cell line growth inhibition, 48 h
The source made the active and inactive calls. Cut-off read from the data, not from the text of the source: active = GI50 up to about 1.1 µM and inactive = higher.

# example entries with known answers
MOLECULE: C=CC(O)C#Cc1cnc(OC)nc1OC (stereo unspecified)
RESULT: > 100 µM (inactive)
--
MOLECULE: Cc1ccc2c3c(cnc2n1)C(=O)OCCN3C
RESULT: > 100 µM (inactive)

// recorded GI50 for "C[C@H](CCC(=O)NCC(=O)O)[C@H]1CC[C@H]2[C@@H]3[C@H](O)C[C@@H]4C[C@H](O)CC[C@]4(C)[C@H]3CC[C@]12C" : > 100 µM (inactive)

Kindly note the recorded GI50 for "Nc1[nH]c(=O)[nH]c(=O)c1Cc1cccc(Cl)c1" , which is 39 µM (inactive)

For record CCN(CC)CCN1C=CC(C)C(C(=O)O)C1C(N)=O (stereo unspecified) the listed GI50 is > 100 µM (inactive)

Query "CCCCCCCCOC(=O)c1cc([N+](=O)[O-])c(Sc2[nH]cnc3ncnc2-3)c([N+](=O)[O-])c1" yields GI50 of 0.465 µM (active)

Per the record, "Cc1c(-c2ccccn2)ccc2ccccc12" has GI50 of 39.2 µM (inactive)

Entry "O=C(c1ccco1)N(C(=S)OC12CC3CC(CC(C3)C1)C2)c1ccccc1" — recorded GI50 = 47.2 µM (inactive)

---

Recorded GI50 by entry
Test system: OVCAR-4
Test: NCI tumour cell line growth inhibition, 48 h
Calls of active or inactive are those of the source. Rule as the data show it: active = GI50 up to about 1.1 µM and inactive = higher.

The examples below pair each entry with its known result.
MOLECULE: NNC(=S)N/N=C(\CC1OC(=O)c2ccccc21)c1ccccc1O (centres undefined)
RESULT: 88.7 µM (inactive)
//
MOLECULE: CC(=O)Nc1ccc(C2=N/C(=C\c3ccc(Cl)cc3)C(=O)O2)cc1
RESULT: 65 µM (inactive)
//
MOLECULE: CC(C)CCCC(C)[C@H]1CCC2[C@H]3C(CC[C@@]21C)[C@@]1(C)CCC=C[C@]12C[C@@H]2[C@@H]3O (some centres undefined)
RESULT: > 100 µM (inactive)

Hey, OVCAR-4 data for COc1ccc(N[C@H](C[S+]([O-])c2ccc(C)cc2)C(F)(F)C(F)(F)F)cc1 (some centres undefined) : GI50 came out at 95.7 µM (inactive)

Bench note, OVCAR-4: entry Cc1c2n(c3ccccc13)CC1CON(C)C21 (centres undefined) , its GI50 = > 100 µM (inactive)

The observed GI50 for CC1(C)C2CCC3=C(CCC4(C)C5C[C@](C)(C(=O)O)CC[C@]5(C)CC[C@]34C)[C@@]2(C)CC[C@@H]1O (some centres undefined) when tested with OVCAR-4 stands at 16.3 µM (inactive)

---

Test system: SK-MEL-2
Experiment: NCI tumour cell line growth inhibition, 48 h
Active and inactive are the calls of the source. Rule as the data show it: active = GI50 up to about 1.1 µM and inactive = higher.
Parameter call: string, one of active, inactive

// known answers, use as guide
MOLECULE: O=Cc1ccc(OC[C@H]2COC(=O)N2)cc1
ANSWER_LABEL: inactive

MOLECULE: CCN(CC)CCNc1nc2ccc([N+](=O)[O-])cc2[n+]([O-])n1
ANSWER_LABEL: inactive

MOLECULE: CC1(C)C(=O)CCC(=O)C(C)(C)C2=CC=C(O2)C(C)(C)C(=O)CCC(=O)C(C)(C)C2=CC=C1O2
ANSWER_LABEL: inactive

MOLECULE: CC1(S)CC2C(CC1Sc1ccccc1)C2(C)C (stereo not given)
ANSWER_LABEL: inactive

MOLECULE: CC/C(Cl)=N\OC(=O)Nc1ccc(OC)cc1
ANSWER_LABEL: inactive

MOLECULE: CN(C)CCNC(=O)c1cccc(CO)c1[N+](=O)[O-]
ANSWER_LABEL: inactive

Q: Recorded call for "O=C1Nc2ccccc2/C1=C\c1c(Cl)n(-c2ccccc2)c2ccccc12" ?
Ans: inactive

Q: Which result was noted for this molecule in the test: "COc1ccc2cc(CNCCOCCOCCNCc3ccc4cc(OC)ccc4c3)ccc2c1"
Ans: inactive

Q: Any idea what this test logged for "CC(=O)Nc1ccc(/C=c2\sc3nnc(/C=C/c4ccccc4)n3c2=O)cc1" ?
Ans: inactive

Q: Hello, I am checking results. What call was entered for "C[C@]12CC[C@@H]3c4cc(OCC(F)(F)F)c(O)cc4/C(=N/O)C[C@H]3[C@@H]1CC[C@@H]2O" ?
Ans: active

---

Tested on: NCI-H522
Experiment: NCI tumour cell line growth inhibition, 48 h
Active and inactive are the calls of the source. Cut-off read from the data, not from the text of the source: active = GI50 up to about 1.1 µM and inactive = higher.
I would appreciate it if you answered using one of these outcomes: active, inactive

COMPOUND: O=C1c2cc3c(cc2CC12Cc1cc4c(cc1C2=O)CCCC4)CCCC3
ANSWER_LABEL: inactive
--
COMPOUND: CC(C)(C)c1ccc(-c2nnc(SCc3ccc(Cl)cc3)n2-c2cccc(C(F)(F)F)c2)cc1
ANSWER_LABEL: inactive
--
COMPOUND: CCOC(=O)C(=O)Nc1c(CC)cccc1C(C)CC (centres undefined)
ANSWER_LABEL: inactive
--
COMPOUND: N#CC1=C(N)N(/N=C/c2ccco2)C(c2ccco2)C1(C#N)C#N (centres undefined)
ANSWER_LABEL: inactive

Q: Given "COC(=O)NN1C(=O)C(=P(c2ccccc2)(c2ccccc2)c2ccccc2)C(C(=O)OC)=C1C" , state the outcome it received in this test.
Ans: inactive

Q: Hi, do you know how "N#CCc1c(-c2ccccc2)n(S(=O)(=O)c2ccccc2)c2ccccc12" came out in this test?
Ans: inactive

Q: Kindly provide the recorded test outcome for the following compound: "O=C1OC(=O)c2c1nc1ccccc1c2-c1ccccc1"
Ans: inactive

Q: Call for entry "CO/N=C(/C)c1cccc(Nc2nc3ccccc3c3[nH]c4ccccc4c23)c1" :
Ans: inactive

Q: Hi team, can someone confirm the assay call for COc1cccc2c1C(=O)c1c(O)c3c(c(O)c1C2=O)C[C@@](O)(C(=O)CO)C[C@@H]3OC1CC(N(C)C)C(O)C(C)O1 (some centres undefined) ?
Ans: active

---

Test system: MDA-MB-231
Assay: NCI tumour cell line growth inhibition, 48 h
The source made the active and inactive calls. Cut-off read from the data, not from the text of the source: active = GI50 up to about 1.1 µM and inactive = higher.
Choose the fitting class; nothing outside active, inactive is accepted.

COMPOUND: CC1(C)C2CCC3=C(CCC4(C)C5C[C@](C)(C(=O)O)CC[C@]5(C)CC[C@]34C)[C@@]2(C)CC[C@@H]1O (some centres undefined)
ANSWER_LABEL: inactive
--
COMPOUND: O=C(Oc1cccnc1)c1cc2cc(CCl)ccc2oc1=O
ANSWER_LABEL: inactive
--
COMPOUND: CC(=O)OC1CC2CC(=O)CC1N2C (centres undefined)
ANSWER_LABEL: inactive

Q: For this compound, state the assay outcome: "Cc1nc2c(C)c3c([nH]c4ccc(Cl)cc43)c(C)c2c(O)c1C"
Ans: inactive

Q: Which outcome was entered for the compound COC1C(O)=C2C(=O)OC(C)(O)/C=C/C=C\C=C/C=C/C(c3ccccc3)NC(=O)/C=C/C=C/C=C/C=C/C2(C)C1O (centres undefined) in this test?
Ans: active

Q: // param item: "O=[N+]([O-])c1ccc(O)c(/C=N/NC(=S)N2CCCCC2)c1" ; yields the recorded call
Ans: inactive

Q: Please share the test call associated with O=C(O)C(Cc1c[nH]c2ccccc12)C(=O)NO (centres undefined) .
Ans: inactive

Q: Field: outcome | Entry: "CC1(C)CC[C@]2(C)[C@@H](O)C[C@]3(C)C(=CC[C@@H]4[C@@]5(C)CC[C@H](O)C(C)(C)[C@@H]5CC[C@]43C)[C@@H]2C1"
Ans: inactive

Q: Any idea what this test logged for CCOC(=O)C1NCCc2c1[nH]c1ccccc21 (centres undefined) ?
Ans: inactive
